Each recorded value in this set is attributed to ChEMBL document CHEMBL3994667.

Molecular target: Lysyl oxidase homolog 2 (Homo sapiens)
Sequence (Q9Y4K0 whole entry): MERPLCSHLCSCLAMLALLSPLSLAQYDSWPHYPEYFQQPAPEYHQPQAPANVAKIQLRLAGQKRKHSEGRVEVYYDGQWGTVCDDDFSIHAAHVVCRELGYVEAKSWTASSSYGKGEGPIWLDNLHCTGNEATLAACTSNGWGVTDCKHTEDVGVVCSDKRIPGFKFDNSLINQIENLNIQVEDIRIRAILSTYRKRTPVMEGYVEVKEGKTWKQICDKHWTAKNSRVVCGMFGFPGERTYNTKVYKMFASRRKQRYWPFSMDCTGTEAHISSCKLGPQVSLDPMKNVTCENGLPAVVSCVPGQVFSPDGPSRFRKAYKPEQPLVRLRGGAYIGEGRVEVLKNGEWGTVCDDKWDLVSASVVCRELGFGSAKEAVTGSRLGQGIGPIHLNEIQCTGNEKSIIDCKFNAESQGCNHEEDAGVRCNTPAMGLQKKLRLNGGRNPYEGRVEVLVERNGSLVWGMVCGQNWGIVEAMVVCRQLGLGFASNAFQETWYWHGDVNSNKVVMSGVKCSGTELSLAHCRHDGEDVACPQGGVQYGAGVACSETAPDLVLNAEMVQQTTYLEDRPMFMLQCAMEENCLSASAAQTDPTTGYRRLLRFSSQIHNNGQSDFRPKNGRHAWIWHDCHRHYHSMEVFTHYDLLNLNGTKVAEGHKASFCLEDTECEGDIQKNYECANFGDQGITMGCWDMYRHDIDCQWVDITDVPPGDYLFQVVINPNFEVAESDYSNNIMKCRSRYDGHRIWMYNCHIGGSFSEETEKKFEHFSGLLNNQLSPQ
Assay: Inhibition of full length recombinant human LOXL2 expressed in CHO cells assessed as reduction in H2O2 production using DAP as substrate preincubated for 2 hrs followed by substrate addition measured every 2 minutes for 50 minutes by Amplex red dye based fluorescence assay
measurementKind: log10(IC50) (log10 of the value in µM)
Values below are the log10 of the recorded IC50, with µM as the unit.

>>> reported("N=C(N)c1cccc(CN)c1")
0.70
>>> reported("NCc1ccncc1F")
-0.37
>>> reported("NCc1ccc(F)cc1")
1.41
>>> reported("N=C(N)c1ccc(CN)cc1")
0.05
>>> reported("NCCc1ccncc1")
0.91
>>> reported("NCc1ccncc1")
0.09
>>> reported("NCc1ccc(N)cc1")
1.67

Attention now turns to another entry.
Looking up NCc1ccnc(-c2cccnc2)c1 , I found its log10(IC50) recorded as -0.49
